experiment: chemical genetic growth profiling, strain panel (AID 1159580);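 note: tested at 20 µM; growth read once vehicle control cultures reached saturation at 30 °C; 1 = growth at the plate median or of vehicle wells; lower values mean less growth of the strain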; conditions: S. cerevisiae deletion strains, growth OD, locus YGL253W, strain hxk2, stronger effect = lower value
Among all 5,500 compounds or so, about 2,000 (36%) were called active. Not shown: some 18% with an inconclusive outcome. Some of the results follow.
measurement.label: normalized growth
A bare number is all that is needed in reply.

Here is how some compounds turned out for normalized growth.
Nc1c2c(nc3ccccc13)CCCC2 | 0.96
COC(=O)Nc1nc2ccc(Sc3ccccc3)cc2[nH]1 | 1
COC(=O)Nc1nc2ccc(S(=O)c3ccccc3)cc2[nH]1 (centres undefined) | 0.998

Now turn to the next compound.
**Query** Which normalized growth is listed for CC1(C)CC(O)C2(C)CCC3(C)C(=CCC4C5(C)CCC(O)C(C)(CO)C5CCC43C)C2C1 (centres undefined) ?
**Result** 1.03

* * *

Documented normalized growth across a set of compounds
assay: chemical genetic growth profiling, strain panel (AID 1159580);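 note: tested at 20 µM; growth read once vehicle control cultures reached saturation at 30 °C; 1 = growth at the plate median or of vehicle wells; lower values mean less growth of the strain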; settings: S. cerevisiae deletion strains, growth OD, locus YNL071W, strain lat1, stronger effect = lower value
Hit rate of the full screen: of about 5,500 compounds, about 2,000 (36%) were called active. Another 18% or so got no clear call; they are omitted. Some of the results follow.
Note: the reply should be a number with no unit written.

COc1ccc2c(c1)c(CC(=O)O)c(C)n2C(=O)c1ccc(Cl)cc1 | 0.986
NCCC(=O)N[C@@H](Cc1cnc[nH]1)C(=O)O | 1.01
CC1(C)CC[C@]2(C)CC[C@]3(C)C(=CCC4[C@@]5(C)CC[C@H](O)C(C)(C)C5CC[C@]43C)C2C1 (some centres not stated) | 0.997
COC(=O)C[C@H]1C(C)(C)C2(O)OC34CC2C(=O)[C@]1(C)C3CC[C@]1(C)C4=CC(=O)O[C@H]1c1ccoc1 (some centres not stated) | 0.989
COC(=O)Nc1nc2ccc(Sc3ccccc3)cc2[nH]1 | 0.988
COC1=C[C@@H]2[C@@H]3Cc4ccc(OC)c(O)c4[C@]2(CCN3C)CC1=O | 0.996

Next, consider the following compound.
**Query** Could you tell me which normalized growth is on file for NNC(=O)c1ccncc1 ?
**Result** 0.996

* * *

experiment: chemical genetic growth profiling, strain panel (AID 1159580);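 note: tested at 20 µM; growth read once vehicle control cultures reached saturation at 30 °C; 1 = growth at the plate median or of vehicle wells; lower values mean less growth of the strain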; conditions: S. cerevisiae deletion strains, growth OD, locus YNL128W, strain TEP1, stronger effect = lower value
The whole screen tested about 5,500 compounds, of which about 2,000 (36%) were called active. About 18% were inconclusive and are not listed. The list shows a part of the results.
This section presents compounds with their documented normalized growth values.
// return a plain number; no unit text

For orientation, consider the following solved cases.
COc1ccccc1C1OC(=O)CC1C(=O)O (configuration not stated) | 1.02
CC(N)C1CCC(C(=O)Nc2ccncc2)CC1 (configuration not stated) | 1.01
C[C@]12CCC(=O)C=C1CC[C@@H]1[C@@H]2C(=O)C[C@@]2(C)[C@H]1CC[C@]2(O)C(=O)CO | 0.978
CC1(C)CC[C@]2(C(=O)O)CC[C@]3(C)C(=CCC4[C@@]5(C)CC[C@H](O)[C@@](C)(CO)C5CC[C@]43C)C2C1 (some centres not stated) | 0.996
O=C(CSCc1c(F)cccc1Cl)NC1Cc2ccccc2C1 | 0.988
N=C(N)c1ccc(N)cc1 | 0.978

**Query** Recorded normalized growth for CC1C(=O)N(C)C(=O)c2nc[nH]c21 (configuration not stated) , please?
**Result** 1

**Query** Would you kindly share the measured normalized growth for C[C@@H](N)Cc1cnc[nH]1 ?
**Result** 1.01

**Query** Record request: normalized growth value, item CO[C@@]12[C@@H]3NC3CN1C1=C(C(=O)C(N)=C(C)C1=O)[C@@H]2COC(N)=O (some centres not stated)
**Result** 1

**Query** Quick one: normalized growth for CC(=O)NCc1c(I)c(NC(C)=O)c(I)c(C(=O)O)c1I ?
**Result** 0.988

**Query** Would you kindly share the measured normalized growth for N=C(N)SCCN ?
**Result** 0.987

**Query** Need normalized growth of Nc1ccc(S(=O)(=O)Nc2ccnn2-c2ccccc2)cc1 , thanks.
**Result** 0.995
